Numbers sourced from patent US9586949B2.

# subjectOfTest: PI3Kδ (p110δ/p85α) Recombinant Human Protein (Homo sapiens (Human))
# Sequence (O00329 whole entry): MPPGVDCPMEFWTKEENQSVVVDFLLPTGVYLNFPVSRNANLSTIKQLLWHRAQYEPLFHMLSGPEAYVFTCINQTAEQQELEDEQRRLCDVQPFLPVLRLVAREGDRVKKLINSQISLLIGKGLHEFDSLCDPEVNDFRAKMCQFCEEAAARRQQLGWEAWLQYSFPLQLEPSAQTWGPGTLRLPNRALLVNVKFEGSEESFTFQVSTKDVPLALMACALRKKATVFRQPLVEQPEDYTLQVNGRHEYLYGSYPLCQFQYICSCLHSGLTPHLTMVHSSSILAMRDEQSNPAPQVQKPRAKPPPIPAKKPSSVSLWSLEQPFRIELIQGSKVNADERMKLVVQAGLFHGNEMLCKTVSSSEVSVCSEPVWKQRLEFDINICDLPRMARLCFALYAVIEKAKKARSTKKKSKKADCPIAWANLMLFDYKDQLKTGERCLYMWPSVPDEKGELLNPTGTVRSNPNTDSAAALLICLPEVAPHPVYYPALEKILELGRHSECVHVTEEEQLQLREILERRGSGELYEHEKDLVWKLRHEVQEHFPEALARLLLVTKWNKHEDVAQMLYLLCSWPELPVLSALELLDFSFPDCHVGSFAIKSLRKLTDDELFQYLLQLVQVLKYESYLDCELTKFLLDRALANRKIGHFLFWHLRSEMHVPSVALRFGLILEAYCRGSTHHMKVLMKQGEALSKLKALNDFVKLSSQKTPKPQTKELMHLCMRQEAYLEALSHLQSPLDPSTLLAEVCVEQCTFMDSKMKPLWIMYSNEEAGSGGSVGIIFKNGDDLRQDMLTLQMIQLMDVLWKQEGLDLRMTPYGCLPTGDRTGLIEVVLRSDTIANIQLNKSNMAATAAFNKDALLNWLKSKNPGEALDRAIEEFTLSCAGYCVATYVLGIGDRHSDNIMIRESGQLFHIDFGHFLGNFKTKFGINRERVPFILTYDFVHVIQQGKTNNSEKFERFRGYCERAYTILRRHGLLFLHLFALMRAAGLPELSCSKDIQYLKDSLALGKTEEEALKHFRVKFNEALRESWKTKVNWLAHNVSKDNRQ
# Sequence (P27986 whole entry partner): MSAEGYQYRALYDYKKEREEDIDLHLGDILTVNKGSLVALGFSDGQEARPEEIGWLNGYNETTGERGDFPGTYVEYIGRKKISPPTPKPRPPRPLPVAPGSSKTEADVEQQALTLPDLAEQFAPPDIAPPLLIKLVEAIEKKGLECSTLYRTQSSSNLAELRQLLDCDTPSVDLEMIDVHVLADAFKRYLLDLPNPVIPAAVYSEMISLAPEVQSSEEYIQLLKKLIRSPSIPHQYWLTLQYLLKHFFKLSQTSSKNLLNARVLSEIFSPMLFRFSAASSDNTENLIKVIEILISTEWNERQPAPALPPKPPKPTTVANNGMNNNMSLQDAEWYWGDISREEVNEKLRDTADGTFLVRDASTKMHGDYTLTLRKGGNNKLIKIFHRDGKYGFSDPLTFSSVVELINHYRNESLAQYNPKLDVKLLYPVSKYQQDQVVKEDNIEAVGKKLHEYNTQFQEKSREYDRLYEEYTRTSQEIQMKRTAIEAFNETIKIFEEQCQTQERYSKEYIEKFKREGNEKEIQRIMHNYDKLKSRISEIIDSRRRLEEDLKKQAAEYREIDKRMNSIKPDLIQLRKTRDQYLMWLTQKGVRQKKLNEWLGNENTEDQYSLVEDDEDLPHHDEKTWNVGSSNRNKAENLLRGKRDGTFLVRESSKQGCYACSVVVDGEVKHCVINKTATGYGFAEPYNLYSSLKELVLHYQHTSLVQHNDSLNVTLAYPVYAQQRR
# experimentNotes: PI3Kδ Scintillation Proximity Assay
# testContext: 20 μM PIP2, 2 μM ATP, 3.4 nM PI3Kδ, 120 min; read-out: PI3K-delta SPA IC50
pIC50: −log10 of the molar value. Structures can show the parent of a compound that is named as a salt.
reportedProperty: pIC50

The compound COc1cncc(-c2ccc3nc(-c4nc5ccccc5[nH]4)oc3c2)c1 [Example 4, trifluoroacetate] showed pIC50 equal to > 5.30

In plain terms, Nc1ncc(-c2ccc3nc(-c4nc5ccccc5[nH]4)oc3c2)cc1C(F)(F)F [Example 56, bis(trifluoroacetate)] has a documented pIC50 of ≤ 5.30

Sure, the documented pIC50 for Fc1ncc(-c2ccc3nc(-c4nc5ccccc5[nH]4)oc3c2)cn1 [Example 70, bis(trifluoroacetate)] is ≤ 5.30

Others:
Reported pIC50 ( "O=S(=O)(Nc1cncc(-c2ccc3nc(-c4nc5ccccc5[nH]4)oc3c2)c1)N1CCCCC1" ) = > 6.00

* * *

# subjectOfTest: PI3Kδ (p110δ/p85α) Recombinant Human Protein (Homo sapiens (Human))
# experimentNotes: PI3Kδ Scintillation Proximity Assay
# Format: biochemical
# testContext: 20 μM PIP2, 2 μM ATP, 3.4 nM PI3Kδ, 120 min; read-out: PI3K-delta SPA IC50
pIC50: −log10 of the molar value.
reportedProperty: pIC50

Example cases with answers are listed next.
Form: compound = "CCS(=O)(=O)Nc1cc(-c2ccc3nc(-c4nc5ccccc5[nH]4)oc3c2)cnc1C" ; pIC50 = > 6.60

Recorded result, "COc1cncc(-c2ccc3nc(-c4cnc(C5CC5)[nH]4)oc3c2)c1" , pIC50: > 5.30

pIC50 in this record for "CC(C)Oc1cncc(-c2ccc3nc(-c4nc5ccccc5[nH]4)oc3c2)c1" : > 5.30

According to the records, this compound OC(c1cncc(-c2ccc3nc(-c4ncc[nH]4)oc3c2)c1)C(F)(F)F (centres unmarked) [Example 61, bis(trifluoroacetate)] displays pIC50 of > 6.60

Form: compound = "CCS(=O)(=O)Nc1cc(-c2ccc3nc(-c4nc5ccccc5[nH]4)oc3c2)ccc1F" ; pIC50 = ≤ 5.30

Others:
Reported pIC50 ( "CCS(=O)(=O)Nc1cncc(-c2ccc3nc(-c4ncc[nH]4)oc3c2)c1" ) = > 6.00

Quick note, pIC50 for "N#Cc1cncc(-c2ccc3nc(-c4nc5ccccc5[nH]4)oc3c2)c1" landed at ≤ 5.30

Looking up CP(C)(=O)c1cncc(-c2ccc3nc(-c4nc5ccccc5[nH]4)oc3c2)c1 [Example 72, bis(trifluoroacetate)] , I see its pIC50 listed as > 5.30

* * *

Recorded measurements of pIC50, one per entry
# subjectOfTest: PI3Kδ (p110δ/p85α) Recombinant Human Protein (Homo sapiens (Human))
# experimentNotes: PI3Kδ Scintillation Proximity Assay
# testContext: 20 μM PIP2, 2 μM ATP, 3.4 nM PI3Kδ, 120 min; read-out: PI3K-delta SPA IC50
pIC50: −log10 of the molar value. Counter-ions that a name gives are not always drawn.

Recorded pIC50, per entry:
So, Cc1nc(-c2nc3ccc(-c4cncc(S(C)(=O)=O)c4)cc3o2)[nH]c1C [Example 62, bis(trifluoroacetate)] ? Its pIC50 was > 5.30

Reported pIC50 ( CCCc1nc(-c2nc3ccc(-c4cncc(NS(=O)(=O)CC)c4)cc3o2)[nH]c1C [Example 64, bis(trifluoroacetate)] ) = > 6.60

pIC50 reading for "COc1cncc(-c2ccc3nc(-c4nc5cc(F)ccc5[nH]4)oc3c2)c1" : ≤ 5.30

Please turn your attention to the following entry.
Memo: Fc1ccc(-c2ccc3nc(-c4nc5ccccc5[nH]4)oc3c2)cc1F [Example 51, trifluoroacetate] , reported pIC50: ≤ 5.30
